Origin of values: the RNAGym collection of RNA variant scans (doi:10.7554/elife.80360)

B1: Hairpin Ribozyme (parent)
chain: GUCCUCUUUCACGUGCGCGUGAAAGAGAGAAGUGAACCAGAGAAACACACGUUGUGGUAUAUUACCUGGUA

Variants of: B1
PROTOCOL_DESCRIPTION: self-cleavage, relative activity (ratio to wild type); higher = more cleavage; co-transcriptional
The variants listed here are annotated with their self-cleavage.
No unit in the answer, please; the number alone is enough.

// known answers, use as guide
In: Which self-cleavage is listed for G27A A45G ?
Out: 0.196

In: Which self-cleavage is listed for C10G A71G ?
Out: 0.705

In: Which self-cleavage is listed for C18G A47C ?
Out: 0.242

---
In: Which self-cleavage is listed for A30U U53A ?
Out: 0.138

In: Which self-cleavage is listed for U7A G25A ?
Out: 0.249

In: Which self-cleavage is listed for A47G U70A ?
Out: 0.204

In: Which self-cleavage is listed for A26U G68U ?
Out: 0.207

In: Which self-cleavage is listed for U20A G57A ?
Out: 0.204

In: Which self-cleavage is listed for A23G C46G ?
Out: 0.245

In: Which self-cleavage is listed for U9A G17A ?
Out: 0.695

In: Which self-cleavage is listed for U58C U60C ?
Out: 1.19

In: Which self-cleavage is listed for G17U G21C ?
Out: 0.661

In: Which self-cleavage is listed for G13A G25A ?
Out: 0.484

In: Which self-cleavage is listed for U2C U52G ?
Out: 0.0756

In: Which self-cleavage is listed for U7C A43U ?
Out: 0.151
